Molecular target: T1, monkey MSR1 extracellular domain expressed with a N-terminal hexahistidine-myc-myc tag (HMM-mfMSR1) (monkey (Macaca fascicularis))
T1 chain: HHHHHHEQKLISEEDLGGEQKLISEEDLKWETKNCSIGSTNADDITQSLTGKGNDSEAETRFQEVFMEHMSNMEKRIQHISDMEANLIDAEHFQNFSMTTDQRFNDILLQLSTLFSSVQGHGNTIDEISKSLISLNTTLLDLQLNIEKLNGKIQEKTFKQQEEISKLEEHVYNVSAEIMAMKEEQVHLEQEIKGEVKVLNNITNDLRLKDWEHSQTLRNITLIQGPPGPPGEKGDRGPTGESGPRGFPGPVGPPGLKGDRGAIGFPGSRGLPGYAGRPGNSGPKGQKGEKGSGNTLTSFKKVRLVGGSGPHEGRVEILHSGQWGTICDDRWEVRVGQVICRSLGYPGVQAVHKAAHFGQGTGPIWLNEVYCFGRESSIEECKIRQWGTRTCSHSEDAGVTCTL
Assay: SPR Biacore, 37 C, antibody captured
Threshold check on Kd: strictly below 0.4 nM is Y; on or above 0.4 nM is N.

These solved cases illustrate the format of a correct answer.
binder	categoryLabel
H1H27734P-N297Q (antibody, V domains shown, Human IgG1 Fc with N297Q point mutation) VH: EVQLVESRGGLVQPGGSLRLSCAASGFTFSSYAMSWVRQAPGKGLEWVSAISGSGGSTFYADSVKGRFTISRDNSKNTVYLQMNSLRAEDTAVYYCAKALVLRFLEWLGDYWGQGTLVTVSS VL: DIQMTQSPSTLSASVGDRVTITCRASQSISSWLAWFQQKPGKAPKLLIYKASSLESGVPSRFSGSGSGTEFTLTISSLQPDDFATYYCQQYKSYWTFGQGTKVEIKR	N
H1H27747P-N297Q (antibody, V domains shown, Human IgG1 Fc with N297Q point mutation) VH: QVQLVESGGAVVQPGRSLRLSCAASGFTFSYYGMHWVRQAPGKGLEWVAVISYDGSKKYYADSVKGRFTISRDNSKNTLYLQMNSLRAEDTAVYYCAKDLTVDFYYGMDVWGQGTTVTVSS VL: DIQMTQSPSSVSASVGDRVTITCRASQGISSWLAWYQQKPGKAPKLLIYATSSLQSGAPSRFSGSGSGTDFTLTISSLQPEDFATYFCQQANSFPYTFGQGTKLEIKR	N
H1H27739P-N297Q (antibody, V domains shown, Human IgG1 Fc with N297Q point mutation) VH: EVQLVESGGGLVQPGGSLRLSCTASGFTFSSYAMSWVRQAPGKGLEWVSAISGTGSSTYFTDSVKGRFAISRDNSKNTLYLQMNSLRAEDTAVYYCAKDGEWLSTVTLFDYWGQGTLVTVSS VL: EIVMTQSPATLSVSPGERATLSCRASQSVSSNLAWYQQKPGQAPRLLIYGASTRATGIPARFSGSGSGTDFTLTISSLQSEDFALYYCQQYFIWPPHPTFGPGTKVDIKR	Y
H1H27729P-N297Q (antibody, V domains shown, Human IgG1 Fc with N297Q point mutation) VH: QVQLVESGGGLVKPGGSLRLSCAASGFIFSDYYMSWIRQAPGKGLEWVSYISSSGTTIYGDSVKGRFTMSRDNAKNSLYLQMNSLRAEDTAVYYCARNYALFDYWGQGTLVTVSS VL: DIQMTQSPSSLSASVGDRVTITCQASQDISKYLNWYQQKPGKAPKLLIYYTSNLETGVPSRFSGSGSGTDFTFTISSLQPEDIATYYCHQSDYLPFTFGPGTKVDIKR	N
H1H27731P-N297Q (antibody, V domains shown, Human IgG1 Fc with N297Q point mutation) VH: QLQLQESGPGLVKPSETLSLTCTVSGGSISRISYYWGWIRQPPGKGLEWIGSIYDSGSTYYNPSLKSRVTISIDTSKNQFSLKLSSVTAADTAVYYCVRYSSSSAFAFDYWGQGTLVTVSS VL: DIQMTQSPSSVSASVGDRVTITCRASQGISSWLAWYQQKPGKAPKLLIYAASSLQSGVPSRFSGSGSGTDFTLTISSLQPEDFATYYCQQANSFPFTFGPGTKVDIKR	N
H1H27732P-N297Q (antibody, V domains shown, Human IgG1 Fc with N297Q point mutation) VH: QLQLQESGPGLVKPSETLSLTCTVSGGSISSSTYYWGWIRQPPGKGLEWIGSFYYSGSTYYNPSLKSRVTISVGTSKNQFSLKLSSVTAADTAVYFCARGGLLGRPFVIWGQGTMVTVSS VL: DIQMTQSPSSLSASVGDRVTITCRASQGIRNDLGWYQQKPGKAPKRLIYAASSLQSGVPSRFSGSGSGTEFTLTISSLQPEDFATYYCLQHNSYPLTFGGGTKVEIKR	Y

Please look at the following binder next.
API: query returns whether the binder falls strictly under 0.4 nM in Kd. Query: H1H27754P-N297Q (antibody, V domains shown, Human IgG1 Fc with N297Q point mutation) VH: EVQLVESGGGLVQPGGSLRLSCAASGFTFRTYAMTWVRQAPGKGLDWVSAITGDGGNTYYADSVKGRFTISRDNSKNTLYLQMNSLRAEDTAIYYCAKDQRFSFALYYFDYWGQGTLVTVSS VL: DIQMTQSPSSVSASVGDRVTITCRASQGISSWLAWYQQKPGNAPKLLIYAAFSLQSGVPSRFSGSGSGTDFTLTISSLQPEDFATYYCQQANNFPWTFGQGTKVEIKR
Y
